Data origin, for the record: ChEMBL document CHEMBL1142550

# Tested on: HL-60
# assay-method-text: Photocytotoxicity against human HL-60 cells treated 30 mins before 3.75 J/cm'2 UVA irradiation measured after 72 hrs by MTT assay
# Assay type: functional, cell-based
# assay-context: HL-60, light or radiation study
A collection of molecules and their measured IC50
Just the number please, in µM, no unit attached.

- molecule: "Cc1cc2c(n1-c1ccccc1)CCc1ccc(=O)sc1-2"
  tested-target: "HL-60"
  IC50 (µM): 2.7

# context switch: different molecule, same IC50
Lab note: Cc1cc2c3sc(=O)ccc3ccc2n1-c1ccccc1 gave IC50 of 1.3
